Attribution: patent US20240425478A1

Measured FS CDK4/CDK2 values are reported for all entries that follow.
Target: Cyclin Dependent Kinase 2/Cyclin E1 (CDK2-cycE1) (Homo sapiens, UniProt P24941)
Construct: purchased ProQinase 0050-0055-1
Test: CDK2-cycE1 TR-FRET (LANCE) enzyme assay
Format: biochemical
Conditions: Table O, fold selectivity, enzymatic CDK4 Ki over CDK2 Ki

Past entries and their recorded results:
# Compound, FS CDK4/CDK2
measured = [
    ("CC(C)NC(=O)O[C@@H]1CC[C@H](c2cc(Nc3cncc(C(F)(F)F)n3)n[nH]2)C1", 140),
    ("CC1(NC(=O)O[C@@H]2CC[C@H](c3cc(Nc4ccc(C#N)cn4)n[nH]3)C2)COC1 [Example 10E]", 82),
]

Data request, read-out FS CDK4/CDK2, for Cc1cncc(Nc2cc([C@H]3CC[C@@H](OC(=O)NC(C)C)C3)[nH]n2)n1 110

Quick one: FS CDK4/CDK2 of COCCn1nc(Nc2cc([C@H]3CC[C@@H](OC(=O)NC(C)C)C3)[nH]n2)ccc1=O ? 99

Please look up its FS CDK4/CDK2: Cc1ccc(Nc2cc([C@H]3CC[C@@H](OC(=O)NC(C)(C)C)C3)[nH]n2)cn1 37
